# Target Desc: C-C chemokine receptor type 5 (Homo sapiens)
# Test Summary: Displacement of […] from CCR5 expressed in HEK293F cells

>  <Compound>
CC(CCNC(=O)c1c(Cl)cncc1Cl)N1CCC(C(Oc2cccc(F)c2)c2ccc(C(F)(F)F)cc2)CC1 (mixture of isomers)

>  <IC50, µM>
0.04

$$$$
>  <Compound>
CC(CCNC(=O)c1c(Cl)cncc1Cl)N1CCC(C(Oc2ncccc2Cl)c2ccc(C(F)(F)F)cc2)CC1 (mixture of isomers)

>  <IC50, µM>
0.14

$$$$
>  <Compound>
CCO/N=C(/c1ccc(Br)cc1)C1CCN(C2(CCNC(=O)c3c(Cl)cncc3Cl)CC2)CC1

>  <IC50, µM>
21.4

$$$$
>  <Compound>
Cc1ccc(OC(c2ccc(Br)cc2)C2CCN(C(C)CCNC(=O)c3c(Cl)cncc3Cl)CC2)nc1 (mixture of isomers)

>  <IC50, µM>
3.8

$$$$
>  <Compound>
CC(CCNC(=O)c1c(Cl)cncc1Cl)N1CCC(C(O)c2ccc(Br)cc2)CC1 (centres undefined)

>  <IC50, µM>
3.39

$$$$
>  <Compound>
CCO/N=C(/c1ccc(Br)cc1)C1CCN(C(C)CNC(=O)c2c(C)cc[n+]([O-])c2C)CC1 (centres undefined)

>  <IC50, µM>
17

$$$$
>  <Compound>
CCO/N=C(/c1ccc(Br)cc1)C1CCN(C(C)(C)CCNC(=O)c2c(Cl)cncc2Cl)CC1

>  <IC50, µM>
1.76

$$$$
>  <Compound>
CC(CCNC(=O)c1c(Cl)cncc1Cl)N1CCC(C(Oc2cccc(Cl)n2)c2ccc(S(C)(=O)=O)cc2)CC1 (mixture of isomers)

>  <IC50, µM>
0.01

$$$$
>  <Compound>
CC(CCNC(=O)c1c(Cl)cncc1Cl)N1CCC(C(Oc2cc(Cl)ccn2)c2ccc(C(F)(F)F)cc2)CC1 (mixture of isomers)

>  <IC50, µM>
0.07

$$$$

====

# Target Desc: C-C chemokine receptor type 5 (Homo sapiens, UniProt P51681)
# Sequence (P51681 whole entry): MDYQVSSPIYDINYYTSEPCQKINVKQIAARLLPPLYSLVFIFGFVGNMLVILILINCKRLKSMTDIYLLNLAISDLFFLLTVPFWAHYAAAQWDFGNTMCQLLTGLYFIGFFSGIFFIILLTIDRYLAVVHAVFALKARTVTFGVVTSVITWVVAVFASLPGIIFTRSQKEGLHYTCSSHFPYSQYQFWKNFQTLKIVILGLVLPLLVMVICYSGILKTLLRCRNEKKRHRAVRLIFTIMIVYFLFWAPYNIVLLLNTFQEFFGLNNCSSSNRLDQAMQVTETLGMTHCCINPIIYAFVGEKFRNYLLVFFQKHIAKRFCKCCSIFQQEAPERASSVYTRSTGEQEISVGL
# Test Summary: Displacement of […] from CCR5 expressed in HEK293F cells
pIC50: −log10 of the molar value.

>  <Compound>
Cc1cccnc1OC(c1ccc(Br)cc1)C1CCN(C(C)CCNC(=O)c2c(Cl)cncc2Cl)CC1 (mixture of isomers)

>  <pIC50>
6.72

$$$$
>  <Compound>
CC(CCNC(=O)c1c(Cl)cncc1Cl)N1CCC(C(Oc2cccc(C#N)c2)c2ccc(C(F)(F)F)cc2)CC1 (mixture of isomers)

>  <pIC50>
7.30

$$$$
>  <Compound>
CC(CCNC(=O)c1c(Cl)cncc1Cl)N1CCC(C2=NOCc3cc(Br)ccc32)CC1 (configuration not stated)

>  <pIC50>
4.91

$$$$
>  <Compound>
CC(CCNC(=O)c1c(Cl)cncc1Cl)N1CCC(C(Oc2cccc(Cl)n2)c2ccc(OC(F)(F)F)cc2)CC1 (mixture of isomers)

>  <pIC50>
7.52

$$$$
>  <Compound>
CCO/N=C(/c1ccc(Br)cc1)C1CCN(C2(C)CCN(C(=O)c3c(C)cc[n+]([O-])c3C)CC2)CC1

>  <pIC50>
7.40

$$$$
>  <Compound>
CC(CCNC(=O)c1c(Cl)cncc1Cl)N1CCC(C(Oc2cccc(Cl)c2)c2ccc(C(F)(F)F)cc2)CC1 (mixture of isomers)

>  <pIC50>
7.22

$$$$
>  <Compound>
CCO/N=C(/c1ccc(Br)cc1)C1CCN(CCCNC(=O)c2c(C)cc[n+]([O-])c2C)CC1

>  <pIC50>
6.74

$$$$

====

Listed next: entries and their corresponding log10(CC50).
# Test Summary: Cytotoxicity against human PBMC
# Type: cell-based
Metric: log10(CC50) (log10 of the value in µM)

>  <Compound>
CC(CCNC(=O)c1c(Cl)cncc1Cl)N1CCC(C(=O)c2ccc(Br)cc2)CC1 (stereo not given)

>  <Assay Result>
2.28

$$$$
>  <Compound>
CC(CCNC(=O)c1c(Cl)cncc1Cl)N1CCC(C(Oc2cc(Cl)ccn2)c2ccc(C(F)(F)F)cc2)CC1 (mixture of isomers)

>  <Assay Result>
0.63

$$$$
>  <Compound>
COc1cccc(OC(c2ccc(C(F)(F)F)cc2)C2CCN(C(C)CCNC(=O)c3c(Cl)cncc3Cl)CC2)n1 (mixture of isomers)

>  <Assay Result>
1.51

$$$$
>  <Compound>
CC(CCNC(=O)c1c(Cl)cncc1Cl)N1CCC(C(Oc2ccccc2)c2ccc(Br)cc2)CC1 (stereo not given)

>  <Assay Result>
1.50

$$$$
>  <Compound>
CC(CCNC(=O)c1c(Cl)cncc1Cl)N1CCC(C(Oc2cccc(Cl)c2)c2ccc(C(F)(F)F)cc2)CC1 (mixture of isomers)

>  <Assay Result>
0.91

$$$$
>  <Compound>
CC(CCNC(=O)c1c(Cl)cncc1Cl)N1CCC(C(Oc2cccc(C#N)c2)c2ccc(C(F)(F)F)cc2)CC1 (mixture of isomers)

>  <Assay Result>
1.20

$$$$
>  <Compound>
CC(CCNC(=O)c1c(Cl)cncc1Cl)N1CCC(C(Oc2cccc(Cl)n2)c2ccc(OC(F)(F)F)cc2)CC1 (mixture of isomers)

>  <Assay Result>
0.78

$$$$
>  <Compound>
CC(CCNC(=O)c1c(Cl)cncc1Cl)N1CCC(C(Oc2cccnc2)c2ccc(Br)cc2)CC1 (mixture of isomers)

>  <Assay Result>
1.51

$$$$
>  <Compound>
Cc1cccc(OC(c2ccc(C(F)(F)F)cc2)C2CCN(C(C)CCNC(=O)c3c(Cl)cncc3Cl)CC2)n1 (mixture of isomers)

>  <Assay Result>
0.83

$$$$
>  <Compound>
CC(CCNC(=O)c1c(Cl)cncc1Cl)N1CCC(C(Oc2ccc(C(F)(F)F)cc2)c2ccc(C(F)(F)F)cc2)CC1 (mixture of isomers)

>  <Assay Result>
0.49

$$$$
>  <Compound>
CCO/N=C(/c1ccc(Br)cc1)C1CCN(CCNC(=O)c2c(C)cc[n+]([O-])c2C)CC1

>  <Assay Result>
2.29

$$$$
>  <Compound>
Cc1cccnc1OC(c1ccc(Br)cc1)C1CCN(C(C)CCNC(=O)c2c(Cl)cncc2Cl)CC1 (mixture of isomers)

>  <Assay Result>
1.51

$$$$
>  <Compound>
CC(CCNC(=O)c1c(Cl)cncc1Cl)N1CCC(C(Oc2cccc(C(F)(F)F)n2)c2ccc(C(F)(F)F)cc2)CC1 (mixture of isomers)

>  <Assay Result>
1.13

$$$$

====

# Test Summary: Cytotoxicity against human PBMC
# Type: cell-based
Listed next: entries and their corresponding CC50.

>  <Compound>
CCO/N=C(/c1ccc(Br)cc1)C1CCN(C(CC)CCNC(=O)c2c(C)cc[n+]([O-])c2C)CC1 (stereo not given)

>  <Comparison Symbol>
>

>  <CC50 (µM)>
178

$$$$
>  <Compound>
Cc1cccnc1OC(c1ccc(C(F)(F)F)cc1)C1CCN(C(C)CCNC(=O)c2c(Cl)cncc2Cl)CC1 (mixture of isomers)

>  <Comparison Symbol>
=

>  <CC50 (µM)>
33

$$$$
>  <Compound>
CC(CCNC(=O)c1c(Cl)cncc1Cl)N1CCC(C(Oc2ccccc2C(F)(F)F)c2ccc(C(F)(F)F)cc2)CC1 (mixture of isomers)

>  <Comparison Symbol>
=

>  <CC50 (µM)>
12.5

$$$$
>  <Compound>
CC(CCNC(=O)c1c(Cl)cncc1Cl)N1CCC(C(Oc2cccc(C(=O)O)n2)c2ccc(C(F)(F)F)cc2)CC1 (mixture of isomers)

>  <Comparison Symbol>
=

>  <CC50 (µM)>
28.7

$$$$
>  <Compound>
CCO/N=C(/c1ccc(Br)cc1)C1CCN(C2(C)CCN(C(=O)c3c(C)cc[n+]([O-])c3C)CC2)CC1

>  <Comparison Symbol>
>

>  <CC50 (µM)>
1.6

$$$$

====

Listed next: entries and their corresponding IC50.
# Target Desc: C-C chemokine receptor type 5 (Homo sapiens)
# Test Summary: Displacement of […] from CCR5 expressed in HEK293F cells

>  <Compound>
CC(CCNC(=O)c1c(Cl)cncc1Cl)N1CCC(C(Oc2ccccc2C#N)c2ccc(C(F)(F)F)cc2)CC1 (mixture of isomers)

>  <IC50 (nM)>
100

$$$$
>  <Compound>
CCO/N=C(/c1ccc(Br)cc1)C1CCN(C(C)CCNC(=O)c2c(Cl)cncc2Cl)CC1 (stereo not drawn)

>  <IC50 (nM)>
130

$$$$
>  <Compound>
CC(CCNC(=O)c1c(Cl)cncc1Cl)N1CCC(C(Oc2cccc(C(F)(F)F)n2)c2ccc(C(F)(F)F)cc2)CC1 (mixture of isomers)

>  <IC50 (nM)>
130

$$$$

====

# Target Desc: C-C chemokine receptor type 5 (Homo sapiens, UniProt P51681)
# Test Summary: Displacement of […] from CCR5 expressed in HEK293F cells
Listed next: entries and their corresponding IC50.

>  <Compound>
Cc1ccnc(OC(c2ccc(C(F)(F)F)cc2)C2CCN(C(C)CCNC(=O)c3c(Cl)cncc3Cl)CC2)c1 (mixture of isomers)

>  <IC50 / nM>
50

$$$$
>  <Compound>
Cc1cccc(OC(c2ccc(C(F)(F)F)cc2)C2CCN(C(C)CCNC(=O)c3c(Cl)cncc3Cl)CC2)n1 (mixture of isomers)

>  <IC50 / nM>
40

$$$$
>  <Compound>
CC(CCNC(=O)c1c(Cl)cncc1Cl)N1CCC(C(Oc2cccc(Cl)n2)c2ccc(C(F)(F)F)cc2)CC1 (mixture of isomers)

>  <IC50 / nM>
20

$$$$
